Every entry's value here was drawn from patent US10351575B2.

- target under test: DRAK1 (Homo sapiens (Human))
- Sequence (Q9UEE5 whole entry): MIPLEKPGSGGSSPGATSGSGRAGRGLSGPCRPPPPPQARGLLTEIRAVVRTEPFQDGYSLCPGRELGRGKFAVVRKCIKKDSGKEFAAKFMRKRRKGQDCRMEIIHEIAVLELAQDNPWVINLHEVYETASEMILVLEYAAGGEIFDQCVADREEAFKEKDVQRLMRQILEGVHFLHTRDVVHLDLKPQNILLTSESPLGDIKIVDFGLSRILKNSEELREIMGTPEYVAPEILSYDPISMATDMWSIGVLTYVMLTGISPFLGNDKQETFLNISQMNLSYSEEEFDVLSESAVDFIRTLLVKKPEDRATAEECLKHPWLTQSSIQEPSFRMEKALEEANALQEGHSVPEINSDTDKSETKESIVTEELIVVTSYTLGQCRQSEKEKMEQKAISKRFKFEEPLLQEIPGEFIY
- assay info: KinaseProfiler off-target kinase profiling
- Format: biochemical
- condition context: 10 μM, ATP near Km
endpoint: Avg. POC (POC)

COCc1ccc2c(c1)C(NC(=O)Nc1c(C)c(-c3cnn(C)c3)nn1-c1ccccc1)COC2 (stereo not shown)
105.5
Cc1c(-c2ccc(=O)n(C)c2)nn(-c2ccccc2)c1NC(=O)NC1CN(CC(F)(F)F)Cc2ccccc21 (stereo not shown)
125
Cc1c(-c2cnn(C)c2)nn(-c2ccccc2)c1NC(=O)NC1CCOc2cc(F)ccc21 (stereo not shown)
114
Cc1c(-c2cnn(C)c2)nn(-c2ccccc2)c1NC(=O)N[C@H]1CCCc2ccccc21
108.5
